Experimental Target: Calcitonin gene-related peptide type 1 receptor (Homo sapiens, UniProt O60894+Q16602)
Sequence (Q16602 whole entry, one chain of several): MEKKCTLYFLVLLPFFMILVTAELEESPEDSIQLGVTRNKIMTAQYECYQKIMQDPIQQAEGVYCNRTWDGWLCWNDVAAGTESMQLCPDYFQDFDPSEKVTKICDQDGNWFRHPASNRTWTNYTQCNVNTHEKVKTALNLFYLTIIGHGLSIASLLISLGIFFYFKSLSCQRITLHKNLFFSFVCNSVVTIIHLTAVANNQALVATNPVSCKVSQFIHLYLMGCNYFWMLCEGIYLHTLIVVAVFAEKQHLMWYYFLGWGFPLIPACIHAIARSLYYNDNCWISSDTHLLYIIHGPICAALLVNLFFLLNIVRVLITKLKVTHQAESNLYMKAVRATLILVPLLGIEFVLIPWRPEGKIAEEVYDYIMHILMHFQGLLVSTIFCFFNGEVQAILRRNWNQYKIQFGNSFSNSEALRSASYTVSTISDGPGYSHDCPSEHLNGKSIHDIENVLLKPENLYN
Format: functional, cell-based, HEK293
Assay Endpoint: IC50 (µM)
Numbers only, in µM.

Use these answered entries as a reference point.
1. CN1C(=O)NC(=O)[C@]12Cc1ccc(NC(=O)Cn3c(=O)n(C4CCOC4)c4ccccc43)cc1C2 (stereo partly drawn) = 0.17
2. O=C(Cn1c(=O)n(C2CCSCC2)c2ccccc21)Nc1ccc2c(c1)C[C@]1(C2)C(=O)Nc2ncccc21 = 0.024
3. CN1C(=O)NC(=O)[C@]12Cc1ccc(NC(=O)Cn3c(=O)n(-c4ccncn4)c4ccccc43)cc1C2 = 0.074

Report IC50 for each item below.
1. CN1C(=O)NC(=O)[C@]12Cc1ccc(NC(=O)CN3C(=O)C4(CCOCC4)c4ccccc43)cc1C2
2. O=C(Cn1c(=O)n(-c2ccncn2)c2ccccc21)Nc1ccc2c(c1)C[C@]1(C2)C(=O)Nc2ncccc21

Key:
1: 0.16; 2: 0.035

Batch of 3 compounds: report IC50 for each.
1. O=C(N[C@@H]1N=C(c2ccccc2)c2ccccc2N(CC(F)(F)F)C1=O)N1CCC(n2c(=O)[nH]c3ncccc32)CC1
2. O=C(Cn1c(=O)n(C2CCOC2)c2ccccc21)Nc1ccc2c(c1)C[C@]1(C2)C(=O)Nc2ncccc21 (stereo partly drawn)
3. O=C(Cn1c(=O)n(-c2ccccn2)c2ccccc21)Nc1ccc2c(c1)C[C@]1(C2)C(=O)Nc2ncccc21

Key:
[0.73, 0.027, 0.42]

----------
Can you tell me pIC50 for the items I'm about to list?
Experimental Target: Calcitonin gene-related peptide type 1 receptor (Homo sapiens, UniProt O60894+Q16602)
Type: functional, cell-based, HEK293
Give bare numbers, as −log10 of the molar value.

1) Cc1cc(C)c2c(c1)n(CC(=O)Nc1ccc3c(c1)C[C@]1(C3)C(=O)Nc3ncccc31)c(=O)n2CC(=O)N(C)C = 8.39

Could you report pIC50 for every entry in the following list?
1. O=C(CN1C(=O)C2(CCOCC2)c2ccccc21)Nc1ccc2c(c1)C[C@]1(C2)C(=O)Nc2ncccc21
2. O=C(Cn1c(=O)n2c3c(cccc31)NC(=O)C2)Nc1ccc2c(c1)C[C@]1(C2)C(=O)Nc2ncccc21
3. CN1C(=O)NC(=O)[C@]12Cc1ccc(NC(=O)Cn3c(=O)n(C4CCSCC4)c4ccccc43)cc1C2

Key:
7.41
9.21
6.66

----------
Experimental Target: Calcitonin gene-related peptide type 1 receptor (Homo sapiens, UniProt O60894+Q16602)
Assay Remarks: Antagonistic activity at human CGRP receptor expressed in HEK293 cells coexpressing RAMP1 assessed as inhibition of CGRP-induced cAMP production
Assay type: functional, cell-based
Assay Endpoint: IC50 (nM)
Numbers only, in nM.

Use the examples below as a reference point.
1. O=C(Cn1c(=O)n(-c2ccncn2)c2ccccc21)Nc1ccc2c(c1)C[C@]1(C2)C(=O)Nc2ncccc21 = 1.6
2. O=C(Cn1c(=O)n(C2CCOC2)c2ccccc21)Nc1ccc2c(c1)C[C@]1(C2)C(=O)Nc2ncccc21 (stereo not given in full) = 5.2
3. CN1C(=O)NC(=O)[C@]12Cc1ccc(NC(=O)CN3C(=O)C4(CCOCC4)c4ccccc43)cc1C2 = 57

# return IC50 for each item in the list
1. CN1C(=O)NC(=O)[C@]12Cc1ccc(NC(=O)Cn3c(=O)n(-c4ccncn4)c4ccccc43)cc1C2
2. CN1C(=O)NC(=O)[C@]12Cc1ccc(NC(=O)Cn3c(=O)n(C4CCSCC4)c4ccccc43)cc1C2
3. O=C(CN1C(=O)C2(CCOCC2)c2ccccc21)Nc1ccc2c(c1)C[C@]1(C2)C(=O)Nc2ncccc21
4. Cc1cc(C)c2c(c1)n(CC(=O)Nc1ccc3c(c1)C[C@]1(C3)C(=O)Nc3ncccc31)c(=O)n2CC(=O)N(C)C
5. O=C(Cn1c(=O)n(C2CCSCC2)c2ccccc21)Nc1ccc2c(c1)C[C@]1(C2)C(=O)Nc2ncccc21
6. O=C(Cn1c(=O)n(-c2ccccn2)c2ccccc21)Nc1ccc2c(c1)C[C@]1(C2)C(=O)Nc2ncccc21
7. O=C(Cn1c(=O)n2c3c(cccc31)NC(=O)C2)Nc1ccc2c(c1)C[C@]1(C2)C(=O)Nc2ncccc21

Key:
1: 10; 2: 27; 3: 5.7; 4: 0.87; 5: 2.5; 6: 8.6; 7: 0.28
